src = patent US11365192B2

Biological target: human CYP4F2 (Homo sapiens (Human))
Sequence (P78329 5-520): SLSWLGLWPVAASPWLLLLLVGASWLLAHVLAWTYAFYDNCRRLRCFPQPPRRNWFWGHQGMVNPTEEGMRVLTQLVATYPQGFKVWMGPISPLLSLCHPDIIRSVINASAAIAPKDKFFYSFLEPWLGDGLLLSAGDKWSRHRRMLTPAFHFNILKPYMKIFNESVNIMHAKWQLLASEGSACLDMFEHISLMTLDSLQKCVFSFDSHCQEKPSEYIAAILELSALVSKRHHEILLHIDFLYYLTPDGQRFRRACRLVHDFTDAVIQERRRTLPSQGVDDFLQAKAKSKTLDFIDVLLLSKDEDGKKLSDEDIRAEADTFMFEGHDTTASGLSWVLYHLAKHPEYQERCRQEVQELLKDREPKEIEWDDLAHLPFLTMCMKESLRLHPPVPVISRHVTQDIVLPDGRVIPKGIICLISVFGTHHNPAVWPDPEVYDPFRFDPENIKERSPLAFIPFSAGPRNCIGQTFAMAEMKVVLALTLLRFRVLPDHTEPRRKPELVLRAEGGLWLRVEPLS
Assay: Inhibition test against 20-HETE producing enzyme CYP4F2 (luciferine derivative, luminescence)
Assay type: biochemical
Settings: E. coli membrane fraction expressing human CYP4F2, 2.5 μM luciferine derivative, room temperature 60 minutes
Source text: (1) Inhibition Test for Each Compound of the Present Invention Against 20-HETE Producing Enzymes (CYP4F2 and CYP4A11) […] A: Luminescence value with addition of compound B: Luminescence value without addition of compound and enzyme
Measured Property: IC50 (nM)
Numbers only; they are read as nM.

Here is how some molecules turned out for IC50.
Prompt line: # get_value(readout='IC50', item= O=S(=O)(Nc1ccc(F)cc1)c1ccc(COc2ccc(-c3ccn[nH]3)nc2)cc1 )
Response line: 6.4

Prompt line: How about this molecule: CC(C)S(=O)(=O)Nc1cccc(COc2ccc(-c3ccn[nH]3)nc2)c1
Response line: 450

Prompt line: How about this molecule: NS(=O)(=O)c1ccc(C(=O)N2CCC[C@@H](COc3ccc(-c4ccn[nH]4)nc3)C2)cc1
Response line: 450

Prompt line: How about this molecule: CN(C)C(=O)N1CCC(O)(c2cccc(COc3ccc(-c4ccn[nH]4)nc3)c2)CC1
Response line: 3.5

Prompt line: How about this molecule: O=C(O)CCC(=O)N1CCC[C@H](COc2ccc(-c3ccn[nH]3)nc2)C1
Response line: 20000

Prompt line: How about this molecule: CN([C@H]1CC[C@H](Oc2ccc(-c3ccn[nH]3)nc2)CC1)S(C)(=O)=O
Response line: 2000

Prompt line: How about this molecule: O=C(O)C1(c2cccc(COc3ccc(-c4ccn[nH]4)nc3)c2)CCOCC1
Response line: 14000

Continuing:
Prompt line: # get_value(readout='IC50', item= O=C(O)C1CC1c1cccc(COc2ccc(-c3ccn[nH]3)nc2)c1 (single isomer, unassigned) [Example 26-3] )
Response line: 1500

* * *

Molecular target: human CYP4F2 (Homo sapiens (Human))
Test: Inhibition test against 20-HETE producing enzyme CYP4F2 (luciferine derivative, luminescence)
Type: biochemical
Details: E. coli membrane fraction expressing human CYP4F2, 2.5 μM luciferine derivative, room temperature 60 minutes
Measured Property: log10(IC50) (log10 of the value in nM)
The base-10 logarithm of IC50, taken with IC50 in nM, is what appears here.

Prompt line: # get_value(readout='log10(IC50)', item= O=C(O)C12CCC(COc3ccc(-c4ccn[nH]4)nc3)(CC1)CC2 )
Response line: 4.20

Continuing:
Prompt line: # get_value(readout='log10(IC50)', item= O=C(O)[C@H]1CCC[C@H](COc2ccc(-c3ccn[nH]3)nc2)C1 (racemic) )
Response line: 3.28

Prompt line: How about this compound: O=C(O)c1cc(COc2ccc(-c3ccn[nH]3)nc2)ccc1F
Response line: 4.15

Prompt line: How about this compound: O=C(O)CCc1cccc(CCCOc2ccc(-c3ccn[nH]3)nc2)c1
Response line: 2.57

Prompt line: How about this compound: O=C(CCCCCCOc1ccc(-c2ccn[nH]2)nc1)NC1(C(=O)O)CCCC1
Response line: 3.45

Prompt line: How about this compound: CCCNC(=O)Cc1cccc(COc2ccc(-c3ccn[nH]3)nc2)c1
Response line: 1.99

Prompt line: How about this compound: CC(C)(CCN1CCc2ccc(COc3ccc(-c4ccn[nH]4)nc3)cc2C1=O)C(=O)O
Response line: 1.72

Prompt line: How about this compound: CN(CC12CC(COc3ccc(-c4ccn[nH]4)nc3)(C1)C2)S(C)(=O)=O
Response line: 0.71

Prompt line: How about this compound: CC(C)(CCCCCCOc1ccc(-c2ccn[nH]2)nc1)C(=O)O
Response line: 3.28

Prompt line: How about this compound: O=C(O)C1CN(S(=O)(=O)c2cccc(COc3ccc(-c4ccn[nH]4)nc3)c2)CCO1 (centres unmarked)
Response line: 3.30
